# Tested Target: JAK3 (Homo sapiens)
# Sequence (P52333 1-1124): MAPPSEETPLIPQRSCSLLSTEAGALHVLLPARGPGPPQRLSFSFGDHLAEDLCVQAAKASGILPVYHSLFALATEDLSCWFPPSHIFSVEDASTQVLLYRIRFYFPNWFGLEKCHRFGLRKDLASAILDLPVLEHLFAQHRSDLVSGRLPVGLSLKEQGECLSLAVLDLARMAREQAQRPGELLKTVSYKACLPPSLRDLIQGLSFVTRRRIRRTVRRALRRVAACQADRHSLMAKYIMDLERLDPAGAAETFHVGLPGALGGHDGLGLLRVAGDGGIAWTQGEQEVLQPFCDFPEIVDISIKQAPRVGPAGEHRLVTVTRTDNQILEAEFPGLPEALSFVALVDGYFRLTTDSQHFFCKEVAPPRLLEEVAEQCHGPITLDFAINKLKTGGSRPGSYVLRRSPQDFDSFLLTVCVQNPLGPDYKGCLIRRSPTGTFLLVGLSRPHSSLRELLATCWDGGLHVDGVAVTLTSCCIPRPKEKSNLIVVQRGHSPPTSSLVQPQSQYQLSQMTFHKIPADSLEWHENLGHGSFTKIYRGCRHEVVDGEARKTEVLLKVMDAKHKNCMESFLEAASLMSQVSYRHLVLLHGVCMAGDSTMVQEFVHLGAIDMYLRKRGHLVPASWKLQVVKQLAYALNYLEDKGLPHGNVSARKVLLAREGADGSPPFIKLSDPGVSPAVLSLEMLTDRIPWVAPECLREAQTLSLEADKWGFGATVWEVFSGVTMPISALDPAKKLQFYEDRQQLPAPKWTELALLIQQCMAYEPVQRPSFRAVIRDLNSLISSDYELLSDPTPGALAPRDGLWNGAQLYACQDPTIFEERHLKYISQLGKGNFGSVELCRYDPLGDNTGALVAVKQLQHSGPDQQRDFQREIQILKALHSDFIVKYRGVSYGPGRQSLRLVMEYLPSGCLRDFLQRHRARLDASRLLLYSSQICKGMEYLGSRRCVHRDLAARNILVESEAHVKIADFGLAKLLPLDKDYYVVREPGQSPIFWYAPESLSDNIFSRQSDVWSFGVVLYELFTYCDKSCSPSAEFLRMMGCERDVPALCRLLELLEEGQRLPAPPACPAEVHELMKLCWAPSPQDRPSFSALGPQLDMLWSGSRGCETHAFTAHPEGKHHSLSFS
# Measurement Description: Biochemical JAK3 kinase assay (LanthaScreen)
# Parameters: GST; purchased Life Technologies
# Experimental Setup: selectivity JAK3 over JAK1, difference of pKi
# Protocol: A panel of four LanthaScreen JAK biochemical assays (JAK1, 2, 3 and Tyk2) were carried in a common kinase reaction buffer (50 mM HEPES, pH 7.5, 0.01% Brij-35, 10 mM MgCl2, and 1 mM EGTA). […] Serially or discretely diluted compounds were pre-incubated with each of the four JAK enzymes and the substrate in white 384-well microplates (Corning) at ambient temperature for 1 h. […] The plates were allowed to incubate at ambient temperature for 1 h before being read on the EnVision reader (Perkin Elmer). […]
Property Name: JAK3 (pKi)-JAK1 (pKi)

C=CC(=O)N1CCO[C@@H](C(=O)Nc2nc(-c3ccc(O)c(F)c3)cc3[nH]ncc23)C1: B (a value of 2.3 to 3)
C=CC(=O)N1CCC[C@H](Oc2nc(-c3ccc(O)c(F)c3)cc3[nH]ncc23)C1: B (a value of 2.3 to 3)
C=CC(=O)N1CCC(Oc2cc(-c3ccc(O)c(Cl)c3)cc3[nH]ncc23)CC1: B (a value of 2.3 to 3)

Origin of the recorded values: patent US10392368B2
